# assay_comment: Measurement of count median diameter of residual aerosol in dilution with DMS (differential mobility spectrometer)
# Type: physicochemical
# test_context: Experimental Example 1; DMS, reduced pressure 0.25 bar, primary dilution 25 L/min, secondary dilution 200-fold; weight addition ratio of Table 1
# From the text: Since the DMS measures an aerosol under reduced pressure (0.25 bar) and a high dilution condition, an aerosol with high volatility is easily vanished and gasified. In the case of an aerosol with relatively low volatility, a particle diameter distribution is obtained in terms of residual aerosol, although the aerosol is reduced by volatilization. […]
Please note: condition met applies when Count median diameter is 60 nm or greater, and condition not met applies otherwise.

A selection of reference data follows.
- smiles_structure: "CCCCCCCC/C=C\\CCCCCCCC(=O)O"
  assigned_category: "condition not met"
- smiles_structure: "CCCCCCCC(=O)O"
  assigned_category: "condition not met"
- smiles_structure: "CCCCCCCCCC(=O)O"
  assigned_category: "condition not met"

Qu. Does Count median diameter meet or surpass 60 nm for CCCCCCCCCCCCCCCC(=O)O ?
Ans. condition met

Qu. Does Count median diameter meet or surpass 60 nm for CCCCCCCCCCCCCCCCCCC(=O)O ?
Ans. condition met

----------
# assay_comment: Measurement of solubility in glycerin (GC-FID)
# Assay type: physicochemical
# test_context: Experimental Example 1, excess fatty acid in 2 g glycerin, standing 48 hours
Quick list: Solubility in glycerin per entry.
Write the quantity with the unit trailing the number.

These solved cases illustrate the format of a correct answer.
- smiles_structure: "CCCCCCCC/C=C\\CCCCCCCC(=O)O"
  Solubility in glycerin: "1.82 mg/g"
- smiles_structure: "CCCCC/C=C\\C/C=C\\CCCCCCCC(=O)O"
  Solubility in glycerin: "0.14 mg/g"
- smiles_structure: "CCCCCCCCCCCCCC(=O)O"
  Solubility in glycerin: "0.14 mg/g"
- smiles_structure: "CCCCCCCCCCCCCCCCCCC(=O)O"
  Solubility in glycerin: "0.09 mg/g"

Next compound, please.
Sample CC/C=C\C/C=C\C/C=C\CCCCCCCC(=O)O ; Solubility in glycerin observed: 0.32 mg/g

----------
# assay_comment: Measurement of count median diameter of residual aerosol in dilution with DMS (differential mobility spectrometer)
# Assay type: physicochemical
# test_context: Experimental Example 1; DMS, reduced pressure 0.25 bar, primary dilution 25 L/min, secondary dilution 200-fold; weight addition ratio of Table 1
measure: Count median diameter (nm)
Give the quantity in nm, number only.

These solved cases illustrate the format of a correct answer.
- smiles_structure: "CCCCCCCCCCCCCC(=O)O"
  Count median diameter (nm): 51.6
- smiles_structure: "CCCCCCCCCCCCCCCCCC(=O)O"
  Count median diameter (nm): 75.3

Next compound, please.
Sample CCCCC/C=C\C/C=C\CCCCCCCC(=O)O ; Count median diameter observed: 61.9
